// data source = paper PMC12578881

Molecular target: c-Myc Micro-Tag (Myc-MicroTag) (Homo sapiens, UniProt P01106)
Construct: 15-residue Micro-Tag at C-terminus; transiently expressed in HEK293; Triton X-100 lysate
Sequence (P01106 whole entry): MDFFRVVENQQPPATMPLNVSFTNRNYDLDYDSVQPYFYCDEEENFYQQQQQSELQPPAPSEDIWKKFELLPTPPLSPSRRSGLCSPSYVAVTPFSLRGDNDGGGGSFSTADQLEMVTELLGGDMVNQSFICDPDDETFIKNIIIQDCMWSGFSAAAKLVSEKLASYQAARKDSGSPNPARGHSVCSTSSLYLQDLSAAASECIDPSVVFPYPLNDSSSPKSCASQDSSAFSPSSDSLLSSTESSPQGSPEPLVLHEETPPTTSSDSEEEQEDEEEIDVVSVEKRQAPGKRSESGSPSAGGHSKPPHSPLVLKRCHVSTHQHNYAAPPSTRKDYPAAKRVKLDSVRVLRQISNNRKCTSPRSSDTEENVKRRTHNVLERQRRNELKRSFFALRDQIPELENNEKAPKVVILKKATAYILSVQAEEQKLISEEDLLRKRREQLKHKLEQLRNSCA
Assay: Micro-Tag thermal-shift target engagement (enzyme complementation)
Metric Name: pEC50
Kindly note that pEC50 refers to -log10 of the concentration in mol/L and answer with the value alone.

For reference, reported pEC50 for COc1ccc2oc(C(=O)c3c(C)oc4ccc(OC)cc34)cc2c1 stands at 5.74
